Hello, the source for this data is patent US20180193423A1, in case you need it.

# test target: T1, VPAC1 receptor (UniProt P32241 31-457, limits assumed)
# T1 sequence (looked up): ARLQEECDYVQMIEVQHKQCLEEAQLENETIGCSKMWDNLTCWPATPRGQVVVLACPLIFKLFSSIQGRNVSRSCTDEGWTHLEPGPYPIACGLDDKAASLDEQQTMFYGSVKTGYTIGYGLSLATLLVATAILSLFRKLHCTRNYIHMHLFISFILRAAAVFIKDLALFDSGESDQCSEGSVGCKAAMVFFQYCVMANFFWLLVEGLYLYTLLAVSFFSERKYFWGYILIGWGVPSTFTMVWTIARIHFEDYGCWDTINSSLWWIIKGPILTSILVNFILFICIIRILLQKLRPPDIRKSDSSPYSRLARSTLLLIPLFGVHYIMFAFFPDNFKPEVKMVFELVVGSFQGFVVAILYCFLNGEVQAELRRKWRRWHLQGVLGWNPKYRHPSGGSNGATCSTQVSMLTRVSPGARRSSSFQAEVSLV
# experiment notes: cell-based or functional assay
Where no end group is shown, it is not given here. [ ]: non-standard residue; d: D form. ACPC = 2-aminocyclopentanecarboxylic acid; β3hT = C[C@@H](O)[C@H](N)CC(=O)O; β3hL = CC(C)C[C@H](N)CC(=O)O; β3hK = NCCCC[C@H](N)CC(=O)O; β3hV = CC(C)[C@H](N)CC(=O)O
measured metric: EC 50 vpac1 (Molar), cell-based cAMP assay (nM)

(1) H[ACPC]DA[β3hV]FTDNY[β3hT]RLR[β3hK]QLA[β3hV]KKY[β3hL]NAI[β3hL]N (not fully specified (C-terminus); printed as HxDAvFTDNYtRLRkQLAvKKYlNAIlN) [LBT-V104]
(2) H[dF]DA[ACPC]FTDNY[β3hT]RLR[β3hK]QLA[β3hV]KKY[β3hL]NAI[β3hL]N (not fully specified (C-terminus); printed as HfDAxFTDNYtRLRkQLAvKKYlNAIlN) [LBT-V127]
(3) HSDAVFTDNY[β3hT]RLR[β3hK]QLA[β3hV]KKY[β3hL]NAI[β3hL]N (not fully specified (C-terminus); printed as HSDAVFTDNYtRLRkQLAvKKYlNAIlN) [LBT-V101]
Task for the reader: place the binders above in descending order according to recorded EC 50 vpac1 (Molar), cell-based cAMP assay. Answer format: the labels, ordered as requested.
2, 1, 3
(2: 89.3 nM, 1: 4.43 nM, 3: 2.17 nM)
